System: Candida albicans
Assay: Antifungal activity against fluconazole/ITC-resistant Candida albicans ATCC 90819 measured after 48 hrs by CLSI M27-A3 protocol based method
Format: functional
Settings: ATCC 90819, 48 h
property: MIC (µg/mL)

>>> df
                                smiles_text  property  censoring_operator  result_value
0  COc1ccc(N/N=C(\C)c2ccc(-c3ccc(/C(C)=N/Nc4ccc(OC)cc4)cc3)cc2)cc1       MIC                   =          31.3
1  Brc1ccc(N/N=C/c2ccc(-c3cccc(/C=N/Nc4ccc(Br)cc4)c3)cc2)cc1       MIC                   >          31.3
2  C[C@@H](c1ncncc1F)[C@](O)(Cn1cncn1)c1ccc(F)cc1F       MIC                   =          0.12
3  Fc1ccc(N/N=C/c2ccc(-c3cccc(/C=N/Nc4ccc(F)cc4F)c3)cc2)c(F)c1       MIC                   =          15.6
4  Fc1cccc(N/N=C/c2ccc(-c3ccc(/C=N/Nc4cccc(F)c4F)cc3)cc2)c1F       MIC                   >          31.3

* * *

# selectivity ratio per record follows
Assay: Selectivity index, ratio of compound concentration showing <20 to <25% hemolysis in mouse RBC to MIC for Aspergillus nidulans ATCC 38163
Assay type: toxicity
Details: red blood cells (erythrocytes), read-out: Selectivity Index
property: selectivity ratio

                                smiles_text  result_value
0  C(=N\Nc1ccccc1)/c1ccc(-c2cccc(/C=N/Nc3ccccc3)c2)cc1       1 to 32
1  C(=N\Nc1ccccc1)/c1ccc(-c2ccc(/C=N/Nc3ccccc3)cc2)cc1       1 to 32

* * *

Test: Selectivity index, ratio of compound concentration showing <20 to <25% hemolysis in mouse RBC to MIC for fluconazole/ITC-resistant Candida albicans ATCC 90819
Assay type: toxicity
Conditions: red blood cells (erythrocytes), read-out: Selectivity Index
Measured selectivity ratio, listed per entry.
property: selectivity ratio

                                smiles_text           property  result_value
0  C(=N\Nc1ccccc1)/c1ccc(-c2cccc(/C=N/Nc3ccccc3)c2)cc1  selectivity ratio       1 to 32
1  C(=N\Nc1ccccc1)/c1ccc(-c2ccc(/C=N/Nc3ccccc3)cc2)cc1  selectivity ratio       1 to 32

* * *

Test: Selectivity index, ratio of compound concentration showing <20 to <25% hemolysis in mouse RBC to MIC for fluconazole/ITC-susceptible Candida albicans ATCC MYA-2876
Assay type: toxicity
Settings: red blood cells (erythrocytes), read-out: Selectivity Index
property: selectivity ratio

>>> df
                                smiles_text  result_value
0  C(=N\Nc1ccccc1)/c1ccc(-c2ccc(/C=N/Nc3ccccc3)cc2)cc1       1 to 32
1  C(=N\Nc1ccccc1)/c1ccc(-c2cccc(/C=N/Nc3ccccc3)c2)cc1       1 to 32

* * *

Assay: Hemolytic activity in mouse RBC at 7.8 ug/ml after 1 hr relative to control
Type: ADME, cell-based, Erythrocyte
Conditions: red blood cells (erythrocytes), read-out: Activity
Outcome: 1 for hemolysis at 1 h, 7.8 ug/ml of at least 6%; 0 for anything lower.

>>> print(df.to_string())
                                 smiles_text  discrete_label
 0  Fc1ccc(N/N=C/c2ccc(-c3ccc(/C=N/Nc4ccc(F)cc4)cc3)cc2)cc1               0
 1  COc1ccc(N/N=C/c2ccc(-c3cccc(/C=N/Nc4ccc(OC)cc4)c3)cc2)cc1               0
 2  C[C@@H](c1ncncc1F)[C@](O)(Cn1cncn1)c1ccc(F)cc1F               1
 3  COc1ccc(N/N=C/c2ccc(-c3ccc(/C=N/Nc4ccc(OC)cc4)cc3)cc2)cc1               0
 4  Fc1cccc(N/N=C/c2ccc(-c3ccc(/C=N/Nc4cccc(F)c4)cc3)cc2)c1               0
 5  N=C(N)N/N=C/c1ccc(-c2cccc(/C=N/NC(=N)N)c2)cc1               0
 6  Fc1ccc(N/N=C/c2ccc(-c3cccc(/C=N/Nc4ccc(F)cc4)c3)cc2)cc1               1
 7  Fc1ccc(N/N=C/c2ccc(-c3cccc(/C=N/Nc4ccc(F)cc4F)c3)cc2)c(F)c1               1
 8  Fc1cccc(N/N=C/c2ccc(-c3cccc(/C=N/Nc4cccc(F)c4)c3)cc2)c1               1
 9  C(=N\Nc1ccccc1)/c1ccc(-c2cccc(/C=N/Nc3ccccc3)c2)cc1               1
10  C(=N\Nc1ccccc1)/c1ccc(-c2ccc(/C=N/Nc3ccccc3)cc2)cc1               0

* * *

Test system: Candida albicans
Experiment: Antifungal activity against fluconazole/ITC-resistant Candida albicans ATCC 90819 measured after 48 hrs by CLSI M27-A3 protocol based method
Assay type: functional
Details: ATCC 90819, 48 h
property: MIC (µg/mL)

                                smiles_text  property  censoring_operator  result_value
0  C/C(=N\NC(=N)N)c1ccc(-c2ccc(/C(C)=N/NC(=N)N)cc2)cc1       MIC                   =           3.9
1  Fc1ccc(N/N=C/c2ccc(-c3ccc(/C=N/Nc4ccc(F)cc4F)cc3)cc2)c(F)c1       MIC                   =          31.3
2  COc1cccc(N/N=C(\C)c2ccc(-c3ccc(/C(C)=N/Nc4cccc(OC)c4)cc3)cc2)c1       MIC                   =          31.3
3  Fc1ccc(N/N=C/c2ccc(-c3ccc(/C=N/Nc4ccc(F)cc4)cc3)cc2)cc1       MIC                   =          31.3
4  CC(C)Oc1ccc(N/N=C/c2ccc(-c3ccc(/C=N/Nc4ccc(OC(C)C)cc4)cc3)cc2)cc1       MIC                   >          31.3

* * *

Assay: Selectivity index, ratio of CC50 for human A549 cells to MIC for Candida krusei ATCC 6258
Format: toxicity
Settings: read-out: Selectivity Index
// boundary case: selectivity ratio equal to 4 maps to 0; strictly smaller maps to 1

>>> print(df.to_string())
                                smiles_text  discrete_label
0  C(=N\Nc1ccccc1)/c1ccc(-c2ccc(/C=N/Nc3ccccc3)cc2)cc1               1
1  Fc1ccc(N/N=C/c2ccc(-c3ccc(/C=N/Nc4ccc(F)cc4)cc3)cc2)cc1               0
2  Fc1cccc(N/N=C/c2ccc(-c3ccc(/C=N/Nc4cccc(F)c4)cc3)cc2)c1               1
3  COc1ccc(N/N=C/c2ccc(-c3cccc(/C=N/Nc4ccc(OC)cc4)c3)cc2)cc1               0
4  Fc1ccc(N/N=C/c2ccc(-c3cccc(/C=N/Nc4ccc(F)cc4)c3)cc2)cc1               1
5  C/C(=N\Nc1ccc(F)cc1)c1ccc(-c2ccc(/C(C)=N/Nc3ccc(F)cc3)cc2)cc1               0
6  Fc1cccc(N/N=C/c2ccc(-c3cccc(/C=N/Nc4cccc(F)c4)c3)cc2)c1               0
7  Fc1ccc(N/N=C/c2ccc(-c3cccc(/C=N/Nc4ccc(F)cc4F)c3)cc2)c(F)c1               0
8  Fc1ccccc1N/N=C/c1ccc(-c2cccc(/C=N/Nc3ccccc3F)c2)cc1               0

* * *

Quick reference for selectivity ratio among some compounds
Assay: Selectivity index, ratio of compound concentration showing <20 to <30% hemolysis in mouse RBC to MIC for fluconazole/ITC-resistant Candida albicans ATCC 90819
Assay type: toxicity
Conditions: red blood cells (erythrocytes), read-out: Selectivity Index
property: selectivity ratio

>>> df
                                smiles_text  result_value
0  C/C(=N\Nc1ccc(F)cc1)c1ccc(-c2ccc(/C(C)=N/Nc3ccc(F)cc3)cc2)cc1       1 to 32
1  COc1ccc(N/N=C/c2ccc(-c3cccc(/C=N/Nc4ccc(OC)cc4)c3)cc2)cc1       1 to 32
2  Fc1ccc(N/N=C/c2ccc(-c3ccc(/C=N/Nc4ccc(F)cc4)cc3)cc2)cc1       1 to 32
3  Fc1cccc(N/N=C/c2ccc(-c3ccc(/C=N/Nc4cccc(F)c4)cc3)cc2)c1       1 to 32
4  Fc1ccc(N/N=C/c2ccc(-c3cccc(/C=N/Nc4ccc(F)cc4)c3)cc2)cc1       1 to 32
5  COc1ccc(N/N=C/c2ccc(-c3ccc(/C=N/Nc4ccc(OC)cc4)cc3)cc2)cc1       1 to 32
